Reference source: ChEMBL document CHEMBL1133898

Ki data for Norepinephrine transporter (Rattus norvegicus, UniProt Q9WTR4) follow.

Reference set, count: 5
{"smiles_entry": "CN1CC[C@H](c2ccc(Cl)cc2)[C@@H](c2nc(-c3ccc4c(c3)OCO4)no2)C1", "Ki": "> 3000 nM"}
{"smiles_entry": "Cc1noc([C@H]2CN(C)CC[C@@H]2c2ccc(Cl)cc2)n1", "Ki": "256 nM"}
{"smiles_entry": "COC(=O)[C@H]1CN(C)CC[C@@H]1c1ccc(Cl)cc1", "Ki": "252 nM"}
{"smiles_entry": "COc1ccc(-c2noc([C@@H]3CN(C)CC[C@H]3c3ccc(Cl)cc3)n2)cc1", "Ki": "> 3000 nM"}
{"smiles_entry": "COc1ccc(-c2noc([C@H]3CN(C)CC[C@@H]3c3ccc(Cl)cc3)n2)cc1", "Ki": "> 3000 nM"}

Ki recorded for this compound, "CN1CC[C@H](c2ccc(Cl)cc2)[C@@H](c2nc(-c3ccc(Cl)cc3)no2)C1" , is > 3000 nM

Ki recorded for this compound, "CN1CC[C@@H](c2ccc(Cl)cc2)[C@H](c2nc(-c3ccc4c(c3)OCO4)no2)C1" , is > 3000 nM

Ki recorded for this compound, "CN1CC[C@H](c2ccc(Cl)cc2)[C@@H](c2nc(-c3ccc(Br)cc3)no2)C1" , is > 3000 nM
